system_under_test: hPPARβ/δ (Homo sapiens, UniProt Q03181)
Sequence (Q03181 171-441): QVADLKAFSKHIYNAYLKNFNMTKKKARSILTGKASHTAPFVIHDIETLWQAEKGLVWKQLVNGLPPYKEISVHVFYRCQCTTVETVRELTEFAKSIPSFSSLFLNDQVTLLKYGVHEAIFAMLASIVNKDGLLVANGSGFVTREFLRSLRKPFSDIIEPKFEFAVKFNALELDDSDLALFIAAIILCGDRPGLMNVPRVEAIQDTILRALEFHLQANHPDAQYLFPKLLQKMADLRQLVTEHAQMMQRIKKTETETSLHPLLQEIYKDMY
protocol_notes: PPAR transactivation assay, human chimeric PPAR/Gal4 reporter luciferase system in Cos-7 cells (PPARβ/δ)
Format: cell-based
condition_notes: COS-7; read-out: Efficacy (%) at 10 µmol/L PPARβ/δ
Procedure: Transfections were stopped after 16 h by adding DMEM/10% FCS. Cells were detached with trypsin, re-seeded in 96-well plates for 6 h in DMEM/10% FCS, and incubated for 24 h in DMEM/0.2% FCS with increasing concentrations of the test compounds or vehicle (DMSO, 0.1% final concentration). At the end of the experiment, cells were washed once with ice-cold PBS, lysed, and luciferase and β-galactosidase activities were measured. […]
Emax at 10 µM: recorded values

C/C(=C\CCC1CCc2cc(OCc3ccccc3)ccc2N1C)CCC(=O)O (stereo not drawn) = 73%
C/C(=C\CCc1ccc2cc(OCc3ccccc3)ccc2n1)CCC(=O)O = 14%
CCOC(=O)CC/C(C)=C/CCc1ccc2cc(OCc3ccccc3)ccc2n1 = 32%

Give recorded Emax at 10 µM. CCOC(=O)CC/C(C)=C/CCC1CCc2cc(OCc3ccccc3)ccc2N1C (stereo not drawn)
60%

Give recorded Emax at 10 µM. CCOC(=O)CC/C(C)=C/CC1Cc2cc(OCc3ccccc3)ccc2N(C)C1C (stereo not drawn)
7%

Give recorded Emax at 10 µM. C/C(=C\Cc1cc2cc(OCc3ccccc3)ccc2nc1C)CCC(=O)O
2%
